Molecular target: T1, recombinant human 4R0N tau (human, UniProt P10636 2-758)
T1 construct: also called recombinant 4R0N human tau; P10636-6
T1 sequence (P10636 other isoform, or with tags, fused parts or gaps limits assumed): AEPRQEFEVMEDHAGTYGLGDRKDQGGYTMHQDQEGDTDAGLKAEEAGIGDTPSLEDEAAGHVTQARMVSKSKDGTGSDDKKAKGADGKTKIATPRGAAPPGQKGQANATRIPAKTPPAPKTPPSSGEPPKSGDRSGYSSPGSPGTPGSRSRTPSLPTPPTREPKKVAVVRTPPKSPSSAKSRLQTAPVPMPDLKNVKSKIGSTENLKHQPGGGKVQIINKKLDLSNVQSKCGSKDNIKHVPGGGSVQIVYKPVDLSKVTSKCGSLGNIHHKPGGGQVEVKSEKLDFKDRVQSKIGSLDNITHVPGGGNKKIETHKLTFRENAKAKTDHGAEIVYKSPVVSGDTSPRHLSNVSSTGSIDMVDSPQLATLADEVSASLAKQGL
Assay: SPR Biacore T200; antibody captured by anti-human Fc; tau as analyte; global 1:1 fit
observable: kon (M⁻¹ s⁻¹)
Your answer is read as M⁻¹ s⁻¹, so omit the unit and give the number.

Task: Quick one: kon for hu9F5VHv9/hu9F5VLv8_DIM18 (antibody, V domains shown) VH: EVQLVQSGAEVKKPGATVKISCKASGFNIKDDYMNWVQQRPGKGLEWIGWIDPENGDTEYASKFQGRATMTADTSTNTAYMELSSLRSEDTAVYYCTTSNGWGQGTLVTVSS VL: DIQMTQSPFSLPVTPGESASISCRSSKSLDHSNGITYLYWYGQKPGQSPQLLIYQGSNRASGVPNRFSSSGSGTDFTLKISRVEAEDVGVYYCAQNIELPLTFGQGTKLEIK ?
Output: 2.1e+06

Task: Here is the next binder: hu9F5VHv9/hu9F5VLv8_DIM9 (antibody, V domains shown) VH: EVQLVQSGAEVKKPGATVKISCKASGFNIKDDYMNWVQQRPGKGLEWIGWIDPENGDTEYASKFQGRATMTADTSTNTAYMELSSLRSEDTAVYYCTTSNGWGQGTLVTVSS VL: DIQMTQSPFSLPVTPGESASISCRSSKSLGHSNGITYLYWYQQKPGQSPQLLIYQKSNGASGVPNRFSSSGSGTDFTLKISRVEAEDVGVYYCAQNIELPLTFGQGTKLEIK
Output: 2.29e+06
